Data provenance is the nanobody polyreactivity screen of Harvey et al. (2022).

# Experimental Details: yeast display, Sf9 membrane polyspecificity reagent, FACS + sequencing; frameworks hold sequencing errors
Observable: polyreactivity (PSR sort gate)

INSERT INTO assay_data (macromolecule_sequence, observable, result_value) VALUES
  ('QVQLVESGGGLVQAGGSLRLSCAASGIIFWRYAMGWYRQAPGKERELVATITSGGSTDYADSVKGRFTISRDNAKNTVYLQMNSLKPEDTEVYYCAALGYATGYWRYYYWGQGTQVTVSS', 'polyreactivity (PSR sort gate)', 'low polyreactivity'),
  ('QVQLVESGGGLVQAGGSLRLSCAASGFTFSNYTMGWYRQAPVKERELVARITTRGTSTYYADSVKGRFTISRDNAKNTVYLQMNSLKPEDTAVYYCNARARYPRGYEYDYWGQGTQVTVSS', 'polyreactivity (PSR sort gate)', 'high polyreactivity'),
  ('QVQLVESGGGLVQAGGSLRLSCAASGGTLWGYGMGWYRQAPGKEREFVAAITWSGGNTNYADSVKGRFTISRDNAMNTVYLLMNSLKPEDTAVYYCNARVYYKRKYDYWGQGTQVTVSS', 'polyreactivity (PSR sort gate)', 'high polyreactivity'),
  ('QVQLVESGGGLVQAGGSLRLSCAASGRIFRYYTRGWYRQAPGKERELVAAISSSGGRTYYADSVKGRFTISRDYANNTVYLQMNSLKPEDTAVYYCNTDGPTWYPTYDYWGQGTQVTVSS', 'polyreactivity (PSR sort gate)', 'high polyreactivity'),
  ('QVQLVESGGGLVQAGGSLRLSCAASGSIFYSYAMGWYRQAPGKERELVADITITGSTYYADSVKGRFTISRDNAKNTVYLQMNSLKPDDTAVYYCNAVLAPGGYDYWGQGTQVTVSS', 'polyreactivity (PSR sort gate)', 'low polyreactivity'),
  ('QVQLVESGGGLVQAGGSLRLSCAASGIYAYVMGWYRQAPGTERELVAAISGTGGRTYYADSVKGRFTISRDNAKNTVYLQMNSLKPEDTAVYYCAARVKYTRYQSILDYYYWGQGTQVTVSS', 'polyreactivity (PSR sort gate)', 'high polyreactivity'),
  ('QVQLVESGGGLVQAGGSLRLSCAASGSTFYGYAMGWYRQAPGKERELVAAITRSGGSTYYADSVKGRFTISRDNAKYTVYLQMNSLKPEDTEVYYCNKYGYKGGVGYDYWGQGTQVTVSS', 'polyreactivity (PSR sort gate)', 'high polyreactivity'),
  ('QVQLGESGGGLVQAGGSLRLSCAASGRIFISKTMGWSRQAPGKERELVAAITSSGRTYYADSVKGRFTISRDNAMNTVFFQMNSGKPEDTADYYCAADSYSGNDRRRGFDYWGQGTQVTVSS', 'polyreactivity (PSR sort gate)', 'low polyreactivity'),
  ('QVQLVESGGGLVQAGGSLRLSCAASGFTFCQYVMGWYRQAPGKERELVAAINWSGGSTYYADSVKGRFTISRDNAKNTVYLQMNSLKPEDTAVYYCNAVKAPYLRYDYWGQGTQVTVSS', 'polyreactivity (PSR sort gate)', 'high polyreactivity'),
  ('QVQLVESGGALVQAGGSLRLSCAASGSTIRDYAMGWYRQAPRKERELVAVIDNSGGRTYYADSVKGRFTISRDNAKNTVYLQMNSLKPEDTAVYYCNAYAYPFRGGYWGQGTQVTVSS', 'polyreactivity (PSR sort gate)', 'high polyreactivity'),
  ('QVQLVESGGGLVQAGGSLRLSCAASGSTFGWYAMGWYRQAPGKERELVASITSGGRTNYADSVKGRFTISRDNAKNTVYLQMNSLKTEDTAVYYCAKRVYGSNSLYDYWGQGTQVTVSS', 'polyreactivity (PSR sort gate)', 'low polyreactivity');
